- target-or-test-system: Retinaldehyde dehydrogenase 3 (Homo sapiens) (UniProt P47895)
- experiment-notes: qHTS for Inhibitors of the Aldehyde Dehydrogenase Family (ALDH1A3) Validation screen (AID 2061312); note: nearly all actives have a fitted effect of over 45% in size
- measurement-setup: ALDH1A3 enzyme inhibition qHTS validation, fluorescence; series mostly up to 84.7 µM
Inconclusive results are not listed. Active and inactive are the calls of the source. Calls come from the whole dose curve; as a rule, active = well fitted inhibition curve with a large enough effect; inconclusive = small, poorly fitted or top-dose-only effect; inactive = no such curve, though single readings can be large or run the other way.
Return exactly one item of class 1 (active), class 0 (inactive)

>  <structure-smiles-string>
N#Cc1ccc(Oc2ccc3c(c2)COB3O)cc1

>  <assigned-category>
class 1

$$$$
>  <structure-smiles-string>
c1cc(Nc2cc(C3CC3)[nH]n2)nc(Nc2ccc3nc[nH]c3c2)n1

>  <assigned-category>
class 0

$$$$
>  <structure-smiles-string>
CCN(c1cc(-c2ccc(CN3CCOCC3)cc2)cc(C(=O)NCc2c(C)cc(C)[nH]c2=O)c1C)C1CCOCC1

>  <assigned-category>
class 0

$$$$
>  <structure-smiles-string>
C=CC(C)=C[C@@]1(C)SC(=O)C(C)=C1O

>  <assigned-category>
class 0

$$$$
>  <structure-smiles-string>
N[C@@H](Cc1c[nH]c2ccccc12)C(=O)O

>  <assigned-category>
class 0

$$$$

Okay, next one:
Query block: For O=C1NC(=O)c2c1c(-c1ccccc1)cc1[nH]c3ccc(O)cc3c21 , which call appears in the assay record?
Result block: class 0
